- System Under Test: human Nav1.2 (Homo sapiens, UniProt Q99250)
- Construct: expressed in transfected cells
- Sequence (Q99250 whole entry): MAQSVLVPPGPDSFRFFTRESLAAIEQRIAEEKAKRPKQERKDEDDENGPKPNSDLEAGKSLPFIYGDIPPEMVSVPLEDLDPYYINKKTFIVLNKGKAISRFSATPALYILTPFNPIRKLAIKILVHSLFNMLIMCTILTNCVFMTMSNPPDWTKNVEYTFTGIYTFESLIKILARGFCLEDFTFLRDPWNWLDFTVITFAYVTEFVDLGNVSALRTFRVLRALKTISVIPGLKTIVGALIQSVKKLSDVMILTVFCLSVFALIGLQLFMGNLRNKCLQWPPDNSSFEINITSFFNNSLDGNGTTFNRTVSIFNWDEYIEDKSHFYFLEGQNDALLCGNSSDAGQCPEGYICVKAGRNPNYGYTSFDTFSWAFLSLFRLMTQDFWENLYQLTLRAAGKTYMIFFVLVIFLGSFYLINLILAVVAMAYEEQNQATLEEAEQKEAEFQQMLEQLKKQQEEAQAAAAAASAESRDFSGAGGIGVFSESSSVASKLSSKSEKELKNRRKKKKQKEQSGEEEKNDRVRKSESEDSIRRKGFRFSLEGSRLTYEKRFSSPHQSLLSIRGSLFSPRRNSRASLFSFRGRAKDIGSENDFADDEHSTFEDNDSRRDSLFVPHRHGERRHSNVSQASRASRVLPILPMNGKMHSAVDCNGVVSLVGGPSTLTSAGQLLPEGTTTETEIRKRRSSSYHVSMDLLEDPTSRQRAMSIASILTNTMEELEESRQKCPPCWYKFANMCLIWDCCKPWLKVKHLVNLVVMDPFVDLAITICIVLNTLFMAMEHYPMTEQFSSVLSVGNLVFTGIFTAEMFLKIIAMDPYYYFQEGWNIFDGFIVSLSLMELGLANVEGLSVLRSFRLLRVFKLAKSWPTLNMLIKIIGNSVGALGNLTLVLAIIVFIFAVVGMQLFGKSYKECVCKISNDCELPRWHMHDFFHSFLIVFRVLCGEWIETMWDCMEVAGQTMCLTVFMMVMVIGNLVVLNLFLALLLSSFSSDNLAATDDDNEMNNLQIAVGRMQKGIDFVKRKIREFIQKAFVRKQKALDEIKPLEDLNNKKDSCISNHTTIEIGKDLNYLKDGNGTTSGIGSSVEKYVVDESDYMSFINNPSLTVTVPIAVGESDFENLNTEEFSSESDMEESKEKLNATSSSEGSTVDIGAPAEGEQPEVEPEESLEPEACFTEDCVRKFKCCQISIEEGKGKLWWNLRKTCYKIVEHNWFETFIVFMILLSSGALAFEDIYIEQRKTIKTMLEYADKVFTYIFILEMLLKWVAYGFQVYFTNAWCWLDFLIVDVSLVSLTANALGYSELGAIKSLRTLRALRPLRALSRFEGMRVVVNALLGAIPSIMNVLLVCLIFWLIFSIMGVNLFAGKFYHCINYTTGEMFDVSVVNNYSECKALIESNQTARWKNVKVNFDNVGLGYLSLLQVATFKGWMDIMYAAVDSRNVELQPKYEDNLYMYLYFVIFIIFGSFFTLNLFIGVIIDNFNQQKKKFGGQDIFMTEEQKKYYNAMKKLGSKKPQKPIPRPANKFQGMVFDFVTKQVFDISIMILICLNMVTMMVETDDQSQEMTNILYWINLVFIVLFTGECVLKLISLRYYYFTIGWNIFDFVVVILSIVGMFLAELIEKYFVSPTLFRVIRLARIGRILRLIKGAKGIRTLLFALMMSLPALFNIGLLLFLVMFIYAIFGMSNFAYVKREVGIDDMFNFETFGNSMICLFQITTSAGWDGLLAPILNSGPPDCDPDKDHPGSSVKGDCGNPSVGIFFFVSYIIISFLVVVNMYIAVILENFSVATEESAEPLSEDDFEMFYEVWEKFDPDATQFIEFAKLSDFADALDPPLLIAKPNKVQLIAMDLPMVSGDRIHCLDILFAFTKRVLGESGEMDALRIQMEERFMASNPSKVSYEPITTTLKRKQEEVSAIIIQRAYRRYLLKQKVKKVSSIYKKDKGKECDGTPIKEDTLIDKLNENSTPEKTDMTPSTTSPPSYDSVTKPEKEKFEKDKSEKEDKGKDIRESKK
- Test Summary: Nav1.2 spiking HEK assay on Swarm
- Type: cell-based
- Assay Context: 8 mM bath [K+]; mean spike areas under TP1, TP8, TP10
Quantity Kind: IC50 (µM)
Value expressed in µM; do not type the unit.

| Molecule | Recorded Number |
| --- | --- |
| CN(C)CCC=C1c2ccccc2CCc2ccccc21 [Amitriptyline] | 0.56 |

// query IC50 value for entry Nc1nnc(-c2cccc(Cl)c2Cl)c(N)n1 [Lamotrigine]
72.4

What about this molecule? COC[C@@H](NC(C)=O)C(=O)NCc1ccccc1 [Lacosamide]
393

----------
- System Under Test: human Nav.1.7 (Homo sapiens, UniProt Q15858)
- Construct: expressed in transfected cells
- Sequence (Q15858 whole entry): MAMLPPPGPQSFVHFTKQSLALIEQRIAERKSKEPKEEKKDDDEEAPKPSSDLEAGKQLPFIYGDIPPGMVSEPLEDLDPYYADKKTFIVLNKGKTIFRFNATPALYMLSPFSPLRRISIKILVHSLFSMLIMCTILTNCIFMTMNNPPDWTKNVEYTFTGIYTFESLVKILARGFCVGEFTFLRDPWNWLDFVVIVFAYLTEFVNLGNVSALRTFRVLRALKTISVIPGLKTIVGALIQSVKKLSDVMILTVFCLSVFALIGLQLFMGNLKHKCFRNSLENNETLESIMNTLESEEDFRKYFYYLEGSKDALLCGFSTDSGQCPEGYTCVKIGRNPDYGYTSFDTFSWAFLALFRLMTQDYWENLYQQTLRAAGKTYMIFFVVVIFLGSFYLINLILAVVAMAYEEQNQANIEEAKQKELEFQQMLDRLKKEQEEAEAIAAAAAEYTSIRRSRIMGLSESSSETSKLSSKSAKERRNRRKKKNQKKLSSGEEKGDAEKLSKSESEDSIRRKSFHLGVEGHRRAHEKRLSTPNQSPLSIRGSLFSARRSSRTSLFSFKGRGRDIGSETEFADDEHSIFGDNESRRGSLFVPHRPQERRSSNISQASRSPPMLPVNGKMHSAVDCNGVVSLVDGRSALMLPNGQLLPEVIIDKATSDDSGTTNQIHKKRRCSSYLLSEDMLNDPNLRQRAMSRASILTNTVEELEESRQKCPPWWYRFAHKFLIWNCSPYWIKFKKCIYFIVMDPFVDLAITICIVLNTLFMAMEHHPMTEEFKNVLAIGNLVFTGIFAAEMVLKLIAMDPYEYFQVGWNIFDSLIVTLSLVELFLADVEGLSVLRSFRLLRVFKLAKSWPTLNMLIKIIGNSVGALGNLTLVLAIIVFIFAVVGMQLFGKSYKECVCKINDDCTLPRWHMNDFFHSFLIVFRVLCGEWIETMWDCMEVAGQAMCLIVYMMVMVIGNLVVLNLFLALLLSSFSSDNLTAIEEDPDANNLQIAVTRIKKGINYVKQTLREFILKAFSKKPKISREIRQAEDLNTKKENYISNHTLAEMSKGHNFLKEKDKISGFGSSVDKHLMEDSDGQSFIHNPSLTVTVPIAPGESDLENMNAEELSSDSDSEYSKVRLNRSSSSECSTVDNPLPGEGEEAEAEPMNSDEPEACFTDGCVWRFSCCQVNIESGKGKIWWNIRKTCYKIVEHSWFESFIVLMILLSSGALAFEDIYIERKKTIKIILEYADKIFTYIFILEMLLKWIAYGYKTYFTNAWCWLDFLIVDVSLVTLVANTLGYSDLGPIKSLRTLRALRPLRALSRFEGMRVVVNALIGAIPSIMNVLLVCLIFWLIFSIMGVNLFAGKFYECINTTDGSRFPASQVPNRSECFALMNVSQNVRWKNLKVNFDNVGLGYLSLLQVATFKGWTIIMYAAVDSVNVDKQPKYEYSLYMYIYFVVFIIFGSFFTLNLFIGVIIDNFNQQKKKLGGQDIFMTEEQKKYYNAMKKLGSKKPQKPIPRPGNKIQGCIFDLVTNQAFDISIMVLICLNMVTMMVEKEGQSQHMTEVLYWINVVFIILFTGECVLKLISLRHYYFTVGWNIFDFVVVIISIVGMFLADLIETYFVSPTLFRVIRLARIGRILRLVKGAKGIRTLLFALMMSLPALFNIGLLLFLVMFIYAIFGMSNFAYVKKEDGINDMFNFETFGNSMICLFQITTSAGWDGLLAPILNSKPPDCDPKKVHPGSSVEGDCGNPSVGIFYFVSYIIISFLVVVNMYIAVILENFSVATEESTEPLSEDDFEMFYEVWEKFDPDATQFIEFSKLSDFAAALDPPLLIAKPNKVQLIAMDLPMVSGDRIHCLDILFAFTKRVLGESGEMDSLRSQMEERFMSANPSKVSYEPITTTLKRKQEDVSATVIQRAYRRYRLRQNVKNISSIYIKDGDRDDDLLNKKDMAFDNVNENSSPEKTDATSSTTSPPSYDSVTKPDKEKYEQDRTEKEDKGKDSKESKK
- Test Summary: Nav1.7 spiking HEK assay on Swarm
- Assay type: cell-based
- Assay Context: normalized mean spike amplitude score; Prestwick library compounds
molecules and their reported Nav1.7 Swarm (score at 3 µM)

Illustrative cases are given below, each with its answer.
| Molecule | System Under Test | Nav1.7 Swarm (score at 3 µM) |
| --- | --- | --- |
| O=c1[nH]c2ccccc2n1C1CCN(CCCC(c2ccc(F)cc2)c2ccc(F)cc2)CC1 [Pimozide] | human Nav.1.7 (Homo sapiens, UniProt Q15858) | 0.89 |
| COC(=O)C1=C(C#N)NC(C)=C(C(=O)OC(C)C)C1c1cccc([N+](=O)[O-])c1 (centres unmarked) | human Nav.1.7 (Homo sapiens, UniProt Q15858) | 0.24 |
| CNCCCC1c2ccccc2C=Cc2ccccc21 | human Nav.1.7 (Homo sapiens, UniProt Q15858) | 0.63 |
| CCOC(=O)Nc1ccc2c(c1)N(C(=O)CCN1CCOCC1)c1ccccc1S2 | human Nav.1.7 (Homo sapiens, UniProt Q15858) | 0.15 |

Please give the measured Nav1.7 Swarm (score at 3 µM) for this molecule: CCCNC(C)C(=O)Nc1ccccc1C (centres unmarked)
0.95

Next molecule: "OCCN(CCO)c1nc(N2CCCCC2)c2nc(N(CCO)CCO)nc(N3CCCCC3)c2n1"
0.92

Do the same for "COc1ccc([C@@H]2Sc3ccccc3N(CCN(C)C)C(=O)[C@@H]2OC(C)=O)cc1" please
0.82

Moving on to the next molecule: "CN1CCN(CCCN2c3ccccc3Sc3ccc(C(F)(F)F)cc32)CC1"
0.25

Another molecule: "Fc1ccc(C(c2ccc(F)cc2)N2CCN(C/C=C/c3ccccc3)CC2)cc1"
0.16

Subsequent entry: CC(Oc1c(Cl)cccc1Cl)C1=NCCN1 (centres unmarked)
0.88

Another molecule to check: CC12CC3CC(C)(C1)CC(N)(C3)C2 [Memantine]
0.98

Now consider COc1ccc(C(CN(C)C)C2(O)CCCCC2)cc1 (centres unmarked) .
0.95

----------
- System Under Test: human Nav.1.7 (Homo sapiens, UniProt Q15858)
- Construct: expressed in transfected cells
- Test Summary: Nav1.7 spiking HEK assay on Swarm
- Assay type: cell-based
- Assay Context: normalized mean spike amplitude score; Prestwick library compounds
Quantity Kind: Nav1.7 Swarm (score at 3 µM)
Provide a numeric answer; units are not to be included.

| Molecule | Nav1.7 Swarm (score at 3 µM) |
| --- | --- |
| CN(C)CCCN1c2ccccc2CCc2ccccc21 [Imipramine] | 0.35 |
| O=c1[nH]c2ccccc2n1CCCN1CCC(n2c(=O)[nH]c3cc(Cl)ccc32)CC1 [Domperidone] | 0.53 |
| OCCOCCN1CCN(C(c2ccccc2)c2ccc(Cl)cc2)CC1 (centres unmarked) [Hydroxyzine] | 0.56 |
| CCOC(=O)N1CCC(=C2c3ccc(Cl)cc3CCc3cccnc32)CC1 [Loratadine] | 0.62 |

Consider the molecule CSc1ccc2c(c1)N(CCC1CCCCN1C)c1ccccc1S2 (centres unmarked) [Thioridazine] and give its measured Nav1.7 Swarm (score at 3 µM).
0.04
